# System: K86415-001-R-J1-PDC complex spheroids, viability
# methodSummary: Anticancer human tumor K86415-001-R-J1-PDC patient-derived lung adenocarcinoma cell line growth inhibition [RAS]; active means viability on the fitted dose curve at most 10% of control; inactive means the rest
# particulars: second compound 0.01 µM; first compound 1 µM
Outcomes: class 1 = active, class 0 = inactive

compound	subjectOfTest	assignedClass
O=C(c1ccc(F)c(F)c1Nc1ccc(I)cc1F)N1CC(O)([C@@H]2CCCCN2)C1 + C=CC(=O)N1CCN(c2nc(OCC3CCCN3C)nc3c(F)c(-c4nc(N)cc(C)c4C(F)(F)F)c(Cl)cc23)C(C)C1	K86415-001-R-J1-PDC complex spheroids, viability	class 1
Nc1ccn(C2OC(CO)C(O)C2(F)F)c(=O)n1 (stereo not drawn) + C=CC(=O)N1CCN(c2nc(OCC3CCCN3C)nc3c(F)c(-c4nc(N)cc(C)c4C(F)(F)F)c(Cl)cc23)C(C)C1	K86415-001-R-J1-PDC complex spheroids, viability	class 0
CC(Nc1ccc2c(c1)OCCn1cc(N3C(=O)OCC3C(F)F)nc1-2)C(N)=O (stereo not drawn) + C=CC(=O)N1CCN(c2nc(OCC3CCCN3C)nc3c(F)c(-c4nc(N)cc(C)c4C(F)(F)F)c(Cl)cc23)C(C)C1	K86415-001-R-J1-PDC complex spheroids, viability	class 1

====

# Tested on: K86415-001-R-J1-PDC complex spheroids, viability
# methodSummary: Anticancer human tumor K86415-001-R-J1-PDC cell line growth inhibition [RAS];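 further: spheroids exposed to agents for seven days before readout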
# particulars: second compound 0.00316 µM; first compound 0.01 µM; stronger effect = lower value
experimentalReadout: viability, T/C (%)

compound	subjectOfTest	reportedMeasurement
C=CC(=O)Nc1cc(Nc2nccc(-c3cn(C)c4ccccc34)n2)c(OC)cc1N(C)CCN(C)C + C=CC(=O)N1CCN(c2nc(OCC3CCCN3C)nc3c(F)c(-c4nc(N)cc(C)c4C(F)(F)F)c(Cl)cc23)C(C)C1	K86415-001-R-J1-PDC complex spheroids, viability	17.1
O=C(c1ccc(F)c(F)c1Nc1ccc(I)cc1F)N1CC(O)([C@@H]2CCCCN2)C1 + C=CC(=O)N1CCN(c2nc(OCC3CCCN3C)nc3c(F)c(-c4nc(N)cc(C)c4C(F)(F)F)c(Cl)cc23)C(C)C1	K86415-001-R-J1-PDC complex spheroids, viability	15.5
CC(C)n1nc(-c2ccc3oc(N)nc3c2)c2c(N)ncnc21 + C=CC(=O)N1CCN(c2nc(OCC3CCCN3C)nc3c(F)c(-c4nc(N)cc(C)c4C(F)(F)F)c(Cl)cc23)C(C)C1	K86415-001-R-J1-PDC complex spheroids, viability	19.4
CCN1CCN(Cc2ccc(Nc3ncc(F)c(-c4cc(F)c5nc(C)n(C(C)C)c5c4)n3)nc2)CC1 + C=CC(=O)N1CCN(c2nc(OCC3CCCN3C)nc3c(F)c(-c4nc(N)cc(C)c4C(F)(F)F)c(Cl)cc23)C(C)C1	K86415-001-R-J1-PDC complex spheroids, viability	15.9
Nc1ccn(C2OC(CO)C(O)C2(F)F)c(=O)n1 (stereo not given) + C=CC(=O)N1CCN(c2nc(OCC3CCCN3C)nc3c(F)c(-c4nc(N)cc(C)c4C(F)(F)F)c(Cl)cc23)C(C)C1	K86415-001-R-J1-PDC complex spheroids, viability	16.6

====

# Test system: K86415-001-R-J1-PDC complex spheroids, viability
# methodSummary: Anticancer human tumor K86415-001-R-J1-PDC cell line growth inhibition [RAS]; active = viability on the fitted dose curve at most 10% of control; inactive = the rest;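 further: spheroids exposed to agents for seven days before readout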
# particulars: second compound 0.00949 µM; first compound 0.1 µM
# Text: RAS pathway inhibitors in Combinations in Complex Spheroids A high-throughput screen of multi-cell type tumor spheroids was designed to identify active combinations of RAS pathway inhibitors and targeted small molecules. Complex spheroids include a stromal component modeled by human endothelial cells (HUVEC) and fibroblasts modeled by human mesenchymal stem cells (MSCs). […] Compounds. […] If the clinical Cmax for an agent had not been determined, the highest concentration tested was 10 microM. […]
Outcome codes: active, inactive

molecule	assignedClass
C=CC(=O)N1CCN(c2nc(OCC3CCCN3C)nc3c(F)c(-c4nc(N)cc(C)c4C(F)(F)F)c(Cl)cc23)C(C)C1 (configuration not stated) + CCn1c(-c2cccnc2C(C)OC)c2c3cc(ccc31)N1CCOC(CC(NC(=O)C(C(C)C)N(C)C(=O)C3(F)CCN(C(=O)C#CC(C)(C)N(C)C)CC3)C(=O)N3CCCC(N3)C(=O)OCC(C)(C)C2)C1	inactive
Cc1nc(N2CCC3(CC2)COC(C)C3N)c(CO)nc1Sc1ccnc(N)c1Cl (configuration not stated) + CCn1c(-c2cccnc2C(C)OC)c2c3cc(ccc31)N1CCOC(CC(NC(=O)C(C(C)C)N(C)C(=O)C3(F)CCN(C(=O)C#CC(C)(C)N(C)C)CC3)C(=O)N3CCCC(N3)C(=O)OCC(C)(C)C2)C1	active
CC(=O)OC12COC1CC(O)C1(C)C(=O)C(O)C3=C(C)C(OC(=O)C(O)C(NC(=O)OC(C)(C)C)c4ccccc4)CC(O)(C(OC(=O)c4ccccc4)C21)C3(C)C (configuration not stated) + CCn1c(-c2cccnc2C(C)OC)c2c3cc(ccc31)N1CCOC(CC(NC(=O)C(C(C)C)N(C)C(=O)C3(F)CCN(C(=O)C#CC(C)(C)N(C)C)CC3)C(=O)N3CCCC(N3)C(=O)OCC(C)(C)C2)C1	inactive
CC1(O)CCCC1n1c(=O)c(C(F)F)cc2cnc(NC3CCN(S(C)(=O)=O)CC3)nc21 (configuration not stated) + CCn1c(-c2cccnc2C(C)OC)c2c3cc(ccc31)N1CCOC(CC(NC(=O)C(C(C)C)N(C)C(=O)C3(F)CCN(C(=O)C#CC(C)(C)N(C)C)CC3)C(=O)N3CCCC(N3)C(=O)OCC(C)(C)C2)C1	inactive
CC(C)n1nc(-c2ccc3oc(N)nc3c2)c2c(N)ncnc21 + CCn1c(-c2cc(N3CCN(C)CC3)cnc2C(C)OC)c2c3cc(ccc31)-c1csc(n1)CC(NC(=O)C1CC1C)C(=O)N1CCCC(N1)C(=O)OCC(C)(C)C2	active
O=C(c1ccc(F)c(F)c1Nc1ccc(I)cc1F)N1CC(O)([C@@H]2CCCCN2)C1 + CCn1c(-c2cccnc2C(C)OC)c2c3cc(ccc31)N1CCOC(CC(NC(=O)C(C(C)C)N(C)C(=O)C3(F)CCN(C(=O)C#CC(C)(C)N(C)C)CC3)C(=O)N3CCCC(N3)C(=O)OCC(C)(C)C2)C1	active
NC1c2ccccc2OC12CCN(c1cnc3c(N4CCCc5ncccc54)n[nH]c3n1)CC2 (configuration not stated) + CCn1c(-c2cccnc2C(C)OC)c2c3cc(ccc31)N1CCOC(CC(NC(=O)C(C(C)C)N(C)C(=O)C3(F)CCN(C(=O)C#CC(C)(C)N(C)C)CC3)C(=O)N3CCCC(N3)C(=O)OCC(C)(C)C2)C1	active

====

# Tested on: K86415-001-R-J1-PDC complex spheroids, viability
# methodSummary: Anticancer human tumor K86415-001-R-J1-PDC cell line growth inhibition [RAS];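 further: spheroids exposed to agents for seven days before readout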
# particulars: second compound 3.16 µM; first compound 0.00316 µM; stronger effect = lower value

compound	viability, T/C (%)
C=CC(=O)Nc1cc(Nc2nccc(-c3cn(C)c4ccccc34)n2)c(OC)cc1N(C)CCN(C)C + C#Cc1c(F)ccc2cc(O)cc(-c3ncc4c(N5CC6CCC(C5)N6)nc(OCC56CCCN5CC(F)C6)nc4c3F)c12	32.3
Nc1ccn(C2OC(CO)C(O)C2(F)F)c(=O)n1 (stereo not drawn) + C#Cc1c(F)ccc2cc(O)cc(-c3ncc4c(N5CC6CCC(C5)N6)nc(OCC56CCCN5CC(F)C6)nc4c3F)c12	41.3
CC(C)n1nc(-c2ccc3oc(N)nc3c2)c2c(N)ncnc21 + C#Cc1c(F)ccc2cc(O)cc(-c3ncc4c(N5CC6CCC(C5)N6)nc(OCC56CCCN5CC(F)C6)nc4c3F)c12	38.2

====

The following compounds are listed with their measured viability, T/C values.
# Tested on: K86415-001-R-J1-PDC complex spheroids, viability
# methodSummary: Anticancer human tumor K86415-001-R-J1-PDC cell line growth inhibition [RAS];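 further: spheroids exposed to agents for seven days before readout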
# particulars: second compound 0.1 µM; first compound 0.00316 µM; stronger effect = lower value

compound	viability, T/C
C=CC(=O)N1CCN(c2nc(OCC3CCCN3C)nc3c(F)c(-c4nc(N)cc(C)c4C(F)(F)F)c(Cl)cc23)C(C)C1 (stereo unspecified) + C#Cc1c(F)ccc2cc(O)cc(-c3ncc4c(N5CC6CCC(C5)N6)nc(OCC56CCCN5CC(F)C6)nc4c3F)c12	19.5%
Nc1ccn(C2OC(CO)C(O)C2(F)F)c(=O)n1 (stereo unspecified) + C#Cc1c(F)ccc2cc(O)cc(-c3ncc4c(N5CC6CCC(C5)N6)nc(OCC56CCCN5CC(F)C6)nc4c3F)c12	92.6%
O=C(c1ccc(F)c(F)c1Nc1ccc(I)cc1F)N1CC(O)([C@@H]2CCCCN2)C1 + C#Cc1c(F)ccc2cc(O)cc(-c3ncc4c(N5CC6CCC(C5)N6)nc(OCC56CCCN5CC(F)C6)nc4c3F)c12	88.1%
CC(C)n1nc(-c2ccc3oc(N)nc3c2)c2c(N)ncnc21 + C=CC(=O)N1CCN(c2nc(OCC3CCCN3C)nc3c(F)c(-c4nc(N)cc(C)c4C(F)(F)F)c(Cl)cc23)C(C)C1	7.44%
CC(C)n1nc(-c2ccc3oc(N)nc3c2)c2c(N)ncnc21 + C#Cc1c(F)ccc2cc(O)cc(-c3ncc4c(N5CC6CCC(C5)N6)nc(OCC56CCCN5CC(F)C6)nc4c3F)c12	102%
Nc1ccn(C2OC(CO)C(O)C2(F)F)c(=O)n1 (stereo unspecified) + C=CC(=O)N1CCN(c2nc(OCC3CCCN3C)nc3c(F)c(-c4nc(N)cc(C)c4C(F)(F)F)c(Cl)cc23)C(C)C1	9.91%
